Documented optical density across a set of binders
biological target: T1, biotinylated goat anti-human kappa light chain; test: ELISA; positive control; also: test concentration or dose not given here
T1 construct: Positive control of the ELISA
Assay Metric: optical density (OD)

Binder	Unit Tag	Recorded Value
375_D08 (antibody, V domains shown, VH/VL only) VH: EVQLLESGGGLVQPGGSLRLSCAASGFTFSDYGMNWVRQAPGKGLEWVSGINYNSGYKGYADSVKGRFTISRDNSKNTLYLQMNSLRAEDTAVYYCARSANWHDTALDYWGQGTLVTVSS VL: DIQMTQSPSSLSASVGDRVTITCRASQSIITYLNWYQQKPGKAPKLLIYAATSRASGVPSRFSGSGSGTDFTLTISSLQPEDFATYYCQQSYSTPLTFGGGTKVEIK	OD	3.3
374_E11 (antibody, V domains shown, VH/VL only) VH: EVQLLESGGGLVQPGGSLRLSCAASGFTFSSYGMNWVRQAPGKGLEWVSNINYNGGYTSYADSVKGRFTISRDNSKNTLYLQMNSLRAEDTAVYYCARSANWHDTALDYWGQGTLVTVSS VL: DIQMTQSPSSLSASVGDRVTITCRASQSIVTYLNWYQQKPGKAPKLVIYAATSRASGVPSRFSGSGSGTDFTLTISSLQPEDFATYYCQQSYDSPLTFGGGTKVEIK	OD	3.34
366_A03 (antibody, V domains shown, VH/VL only) VH: EVQLLESGGGLVQPGGSLRLSCAASGFTFDSYSMNWVRQAPGKGLEWVAGINYNSGYKGYADSVKGRFTISRDNSKNTLYLQMNSLRAEDTAVYYCARSATWHDTHLDYWGQGTLVTVSS VL: DIQMTQSPSSLSASVGDRVTITCRASQSISSYLNWYQQKPGKAPKLLIYAATSLASGVPSRFSGSGSGTDFTLTISSLQPEDFATYYCQQSYSNPLTFGGGTKVEIK	OD	3.31
376_B01 (antibody, V domains shown, VH/VL only) VH: EVQLLESGGGLVQPGGSLRLSCAASGFTFDSYSMNWVRQAPGKGLEWVAGINYNGGYTSYADSVKGRFTISRDNSKNTLYLQMNSLRAEDTAVYYCARSATWHDTHLDYWGQGTLVTVSS VL: DIQMTQSPSSLSASVGDRVTITCRASQSILTYVNWYQQKPGKAPKLVIYAATSRASGVPSRFSGSGSGTDFTLTISSLQPEDFATYYCQQSYNLPLTFGGGTKVEIK	OD	3.24
375_D04 (antibody, V domains shown, VH/VL only) VH: EVQLLESGGGLVQPGGSLRLSCAASGFTFDDSSMHWVRQAPGKGLEWVSNINYNGGYTGYADSVKGRFTISRDNSKNTLYLQMNSLRAEDTAVYYCAKSANWHDTALDYWGQGTLVTVSS VL: DIQMTQSPSSLSASVGDRVTITCRASQSILSYVNWYQQKPGKAPKLVIYAATSRASGVPSRFSGSGSGTDFTLTISSLQPEDFATYYCQQSYELPLTFGGGTKVEIK	OD	3.17
